# System: Mus musculus
# Experiment Summary: Anticonvulsant activity in Swiss albino mouse assessed as protection against scPTZ-induced tonic-clonic seizures at 30 mg/kg, ip measured after 4 hrs relative to control
# Assay type: functional, organism-based
# Set-up: dose 30 mg/kg
Activity calls are given as the source filed them. No cut-off for these calls is given here.
The reply should name one outcome from true (1) for active, false (0) for inactive

Lab log entry: `CCCNC(=O)C(C)(C)O` — outcome as called in the assay?
false (0)

Hi, do you know how `CCCCNC(=O)C(C)(C)O` came out in this test?
true (1)

Test call for this compound, please: `CC(C)(O)C(=O)NCc1ccccc1`
false (0)

----------
# System: Mus musculus
# Experiment Summary: Anticonvulsant activity in Swiss albino mouse assessed as protection against maximal electric shock-induced tonic-clonic seizures at 30 mg/kg, ip measured after 4 hrs relative to control
# Format: functional
The source made the active and inactive calls. No cut-off for these calls is given here.
Reply using exactly one outcome from 1 (yes) (active), 0 (no) (inactive)

As a guide, the following entries are already answered.
CCCCNC(=O)C(C)(C)O    1 (yes)
CCCN1C(=O)C(C)(C)OS1(=O)=O    0 (no)
CC(C)(O)C(=O)NCCc1ccccc1    1 (yes)
CC(C)(O)C(=O)NCc1ccccc1    1 (yes)

# outcome recorded in this test, key = `CCCCN1C(=O)C(C)(C)OS1(=O)=O`
1 (yes)

Identify the outcome logged in this assay for the compound shown: `CC1(C)OS(=O)(=O)N(CCc2ccccc2)C1=O`
1 (yes)
